Target: T1, human IL-2Rβ ectodomain (amino acids 1-214), C-terminal hexahistidine tag (human, UniProt P14784 27-240)
T1 construct: range 1-214; also called CD122; IL-2Rβ ECD
T1 sequence: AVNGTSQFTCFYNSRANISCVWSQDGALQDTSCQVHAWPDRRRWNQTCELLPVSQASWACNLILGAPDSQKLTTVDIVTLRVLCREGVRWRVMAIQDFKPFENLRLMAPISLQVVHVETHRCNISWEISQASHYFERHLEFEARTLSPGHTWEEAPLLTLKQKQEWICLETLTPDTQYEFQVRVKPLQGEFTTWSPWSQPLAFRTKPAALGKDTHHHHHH
Test: SPR (Example 10), recombinant protein
Label True when Kd is strictly below 2 nM; at or above that, label False.

binder	answer_label
IL-2 mutein H9 (ligand, also called super-IL-2; super-2) APTSSSTKKTQLQLEHLLLDLQMILNGINNYKNPKLTRMLTFKFYMPKKATELKHLQCLEEELKPLEEVLNLAQSKNFHFDPRDVVSNINVFVLELKGSETTFMCEYADETATIVEFLNRWITFCQSIISTLTHHHHHH	True
IL-2 mutein H4 (ligand) APTSSSTKKTQLQLEHLLLDLQMILNGINNYKNPKLTRMLTFKFYMPKKATELKHLQCLEEELKPLEEVLNLASSKNFHLTPRDVISNINVFVLELKGSETTFMCEYADETATIVEFLNRWITFCQSIISTLTHHHHHH	False
IL-2 mutein B1 (ligand) APTSSSTKKTQLQLEHLLLDLQMILNGINNYKNPKLTRMLTFKFYMPKKATELKHLQCLEEELKPLEEVLNLANSKNFHFDPRDVVSNVNVFVLELKGSETTFMCEYADETATIVEFLNRWITFCQSIISTLTHHHHHH	True
IL-2 mutein C5 (ligand) APTSSSTKKTQLQLEHLLLDLQMILNGINNYKNPKLTRMLTFKFYMPKKATELKHLQCLEEELKPLEEVLNLANSKNFHVTPRDVVSNINVFVLELKGSETTFMCEYADETATIVEFLNRWITFCQSIISTLTHHHHHH	False
IL-2 mutein D10 (ligand, also called IL-2 D10; super-2) APTSSSTKKTQLQLEHLLLDLQMILNGINNYKNPKLTRMLTFKFYMPKKATELKHLQCLEEELKPLEEVLNLAHSKNFHFDPRDVVSNINVFVLELKGSETTFMCEYADETATIVEFLNRWITFCQSIISTLTHHHHHH	True
IL-2 mutein G8 (ligand) APTSSSTKKTQLQLEHLLLDLQMILNGINNYKNPKLTRMLTFKFYMPKKATELKHLQCLEEELKPLEEVLNLANSKNFHFDPRDVVSNINVFVLELKGSETTFMCEYADETATIVEFLNRWITFCQSIISTLTHHHHHH	True

Read the next record carefully.
(Q) Please let me know if IL-2 mutein E10 (ligand) APTSSSTKKTQLQLEHLLLDLQMILNGINNYKNPKLTRMLTFKFYMPKKATELKHLQCLEEELKPLEEVLNLASSKNFHFDPRDVVSNINVFVLELKGSETTFMCEYADETATIVEFLNRWITFCQSIISTLTHHHHHH shows Kd below 2 nM.
(A) True

Values from patent US20190119346A1
